# Tested on: HCT-116
# test: NCI tumour cell line growth inhibition, 48 h
Activity calls are given as the source filed them. Rule as the data show it: active = GI50 up to about 1.1 µM and inactive = higher.
API: response.call in true (1) = active, false (0) = inactive

Examples with answers:
[[record]]
molecule = "C/C=C/C=C\\C=C/C(O)C(C)C(CCC(C)C1OC(=O)C=CC1C)OP(=O)(O)O (stereo not given)"
discrete_label = "true (1)"

[[record]]
molecule = "C/C(=N\\n1c(Cc2ccccc2)n[nH]c1=O)c1ccccc1"
discrete_label = "false (0)"

[[record]]
molecule = "CN(C)c1cccc(/C=C(\\C#N)c2ccccc2)c1"
discrete_label = "true (1)"

[[record]]
molecule = "C[n+]1c2ccccc2c(NCC(=O)O)c2ccccc21"
discrete_label = "false (0)"


Field: next molecule
Asked: What outcome does the record of this test show for `CC1(C)CC(=O)c2c(nc3c4c([nH]c(-c5ccc([N+](=O)[O-])cc5)c24)CC(C)(C)C3)C1` ?
Given back: false (0)

---

# System: A498
# test: NCI tumour cell line growth inhibition, 48 h
Counter-ions that a name gives are not always drawn. Activity calls are given as the source filed them. No stated cut-off is given here; in the data, active = GI50 up to about 1.1 µM and inactive = higher.
API: response.call in active, inactive

Asked: What outcome does the record of this test show for `Clc1ccc(/C=N/C23CC4CC(CC(C4)C2)C3)c(Cl)c1` ?
Given back: inactive

Asked: What outcome does the record of this test show for CC(=O)O[C@H]1CCC2[C@@H]3CCC4=C(O)C(=O)C(C#N)C[C@]4(C)C3CC[C@@]21C (stereo partly specified) ?
Given back: active

Asked: What outcome does the record of this test show for `C=C1c2nc3ccccc3n2C=C(c2ccccc2)N1c1ccccc1` ?
Given back: inactive

Asked: What outcome does the record of this test show for CC(CN1c2ccccc2Sc2ccccc21)N(C)C (stereo unspecified) [PROMETHAZINE HYDROCHLORIDE] ?
Given back: inactive

Asked: What outcome does the record of this test show for CC1(C)CCC2=C(O1)c1ccccc1C(=O)C2=O [LAPACHONE] ?
Given back: inactive

---

# System: KM12
# test: NCI tumour cell line growth inhibition, 48 h
Active and inactive are the calls of the source. Cut-off read from the data, not from the text of the source: active = GI50 up to about 1.1 µM and inactive = higher.
For each of the compounds below, state its GI50.

Look at each compound and report its GI50.
1. CCCCC(=O)/C=c1/cc(C)[nH]c2cccc3cnn1c32
2. N#Cc1nnn(-c2ccc(Br)cc2)c1O
3. Nc1nc(N)nc(CC(=O)O)n1
4. Oc1cc(-c2ccccn2)nc2cc(F)ccc12
5. COc1ccc(/C=C/C(=N/NC(=O)N/N=C(/C=C/c2ccc(OC)cc2)C(C)(C)CN2CCCCC2)C(C)(C)CN2CCCCC2)cc1
6. COc1cc(C2C3=C(N=C4SC(C(C)=O)=C(C)N42)c2ccccc2CC3)cc(OC)c1OC (stereo unspecified)

Given back:
> 100 µM (inactive)
> 100 µM (inactive)
> 100 µM (inactive)
36.1 µM (inactive)
1.81 µM (inactive)
> 100 µM (inactive)

Look at each compound and report its GI50.
1. Cc1ccc(OCC2CO2)c(Br)c1 (stereo unspecified)
2. CC(=NNC(=S)Nc1ccccc1C)c1cccc(C(C)=NNC(=S)Nc2ccccc2C)n1
3. CCCN(CCCCC(NC(C)=O)C(=O)NCc1ccccc1)C(=O)N(C)N=O (stereo unspecified)
4. O=C1c2ccccc2C(O)(C(=O)O)C1(O)CC=C(Cl)Cl (stereo unspecified)

Given back:
["66.7 µM (inactive)", "24 µM (inactive)", "> 100 µM (inactive)", "> 125 µM (inactive)"]

Asked: Quote KM12 GI50 for entry O=C1C(CN2CCCCC2)CCCC1CN1CCCCC1 (stereo unspecified) .
Given back: > 60.3 µM (inactive)
